experiment-notes: Cytotoxicity against Homo sapiens (human) Burkitt lymphoma cells assessed as growth inhibition
Type: functional, cell-based
applied-conditions: read-out: pIC50 (converted)
Strictly below 30 nM in IC50: Satisfied. Otherwise: Not satisfied.

INSERT INTO results (given_smiles, category) VALUES
  ('CC(C)/C(=N\Nc1nc2ccccc2o1)c1ccccn1', 'Satisfied'),
  ('CCC/C(=N\Nc1nc2ccccc2o1)c1ccccn1', 'Satisfied'),
  ('C/C(=N\Nc1nc2ccccc2o1)c1cnc(C)cn1', 'Not satisfied'),
  ('C(=N\Nc1nc2ccccc2o1)/c1ccccn1', 'Satisfied'),
  ('C/C(=N\Nc1nc2ccccc2o1)c1ccncn1', 'Not satisfied'),
  ('C/C(=N\Nc1nc2ccccc2o1)c1nccnc1C', 'Not satisfied');

====

experiment-notes: Cytotoxicity against Homo sapiens (human) Burkitt lymphoma cells assessed as growth inhibition
Type: functional, cell-based
applied-conditions: read-out: pIC50 (converted)
Consider the following partition of reported IC50 into named classes: L (below 30 nM), M (30 nM to below 200 nM), H (200 nM or more)

INSERT INTO measurements (given_smiles, category) VALUES
  ('CC/C(=N\Nc1nc2ccccc2o1)c1ccccn1', 'L'),
  ('C/C(=N\Nc1nc2ccccc2o1)c1cccnn1', 'H'),
  ('C/C(=N\Nc1nc2ccccc2o1)c1ccc2ccccc2n1', 'H'),
  ('c1ccc(/C(=N/Nc2nc3ccccc3o2)C2CC2)nc1', 'M'),
  ('c1ccc(/C(=N\Nc2nc3ccccc3o2)c2ccccn2)cc1', 'M'),
  ('C/C(=N\Nc1nc2ccccc2o1)c1ccccn1', 'L'),
  ('C/C(=N\Nc1nc2ccccc2o1)c1ccc(C)nn1', 'H'),
  ('c1ccc(C(=NNc2nc3ccccc3o2)c2ccccn2)nc1', 'L'),
  ('C/C(=N\Nc1nc2ccccc2o1)c1cc(C)ncn1', 'M'),
  ('C/C(=N\Nc1nc2ccccc2o1)c1cccc[n+]1[O-]', 'L');
